Recorded metric: melting point

Query: Recall and state the measured melting point for CCCN1CC=C(c2c[nH]c3ccc(NS(C)(=O)=O)cc23)CC1 .
Result: 217 to 218.5 °C (dec.)

Query: Recall and state the measured melting point for CN1CC=C(c2c[nH]c3ccc(NC(=O)c4ccc(F)cc4Cl)cc23)CC1 .
Result: 212 to 222 °C

Query: Recall and state the measured melting point for CN1CCC(c2c[nH]c3ccc(Sc4ccccc4)cc23)CC1 .
Result: 147 to 150 °C

Query: Recall and state the measured melting point for CC(=O)Nc1ccc2[nH]cc(C3=CCN(C)CC3)c2c1 .
Result: 186 to 189 °C

* * *

Recorded metric: melting point

Query: Recall and state the measured melting point for CN1CC=C(c2cn(C)c3ccc(NS(C)(=O)=O)cc23)CC1 .
Result: 198 to 202 °C

Query: Recall and state the measured melting point for CCN1CCC(c2c[nH]c3ccc(NS(C)(=O)=O)cc23)CC1 .
Result: 179 to 181 °C

Query: Recall and state the measured melting point for CN1CC=C(c2c[nH]c3ccc(NC(=O)c4cccs4)cc23)CC1 .
Result: 229 to 233 °C (dec.)

Query: Recall and state the measured melting point for CN1CCC(c2c[nH]c3ccc(NS(=O)(=O)N(C)C)cc23)CC1 .
Result: 179 to 181 °C (dec.)

Query: Recall and state the measured melting point for CCCCC(=O)c1ccc2[nH]cc(C3CCN(C)CC3)c2c1.Cl .
Result: 242 to 245 °C
